src = paper PMC4109633

- Test system: Salmonella typhimurium TA1535
- assay_explanation: Antimutagenicity assay against benzo[a]pyrene with S9 mix
- Assay type: cell-based
- condition_summary: pre-exposure; 10 μM; B[a]P 20 μM + S9 mix; spontaneous 105.0±13.1
Answer No if B[a]P mutagenicity (revertant colonies/plate; mean ± SEM) is under 200 revertant colonies/plate, and Yes if it is 200 revertant colonies/plate or more.

Exam item: API: above_or_equal(metric=B[a]P mutagenicity (revertant colonies/plate; mean ± SEM), cutoff=200 revertant colonies/plate) for item N#Cc1ccc(-c2ccc(-c3cccs3)o2)c(F)c1
Marked response: No

Exam item: API: above_or_equal(metric=B[a]P mutagenicity (revertant colonies/plate; mean ± SEM), cutoff=200 revertant colonies/plate) for item N#Cc1ccc(-c2ccc(-c3ccco3)o2)cc1F
Marked response: Yes

Exam item: API: above_or_equal(metric=B[a]P mutagenicity (revertant colonies/plate; mean ± SEM), cutoff=200 revertant colonies/plate) for item N#Cc1ccc(-c2ccc(-c3cccs3)o2)cc1F
Marked response: Yes

Exam item: API: above_or_equal(metric=B[a]P mutagenicity (revertant colonies/plate; mean ± SEM), cutoff=200 revertant colonies/plate) for item N#Cc1ccc(-c2ccc(-c3cccs3)s2)cc1F
Marked response: Yes

Exam item: API: above_or_equal(metric=B[a]P mutagenicity (revertant colonies/plate; mean ± SEM), cutoff=200 revertant colonies/plate) for item Cl.N=C(N)c1ccc(-c2ccc(-c3cccs3)o2)c(F)c1
Marked response: No

Exam item: API: above_or_equal(metric=B[a]P mutagenicity (revertant colonies/plate; mean ± SEM), cutoff=200 revertant colonies/plate) for item Cl.N=C(N)c1ccc(-c2ccc(-c3ccco3)o2)cc1F
Marked response: No

Exam item: API: above_or_equal(metric=B[a]P mutagenicity (revertant colonies/plate; mean ± SEM), cutoff=200 revertant colonies/plate) for item Cl.N=C(N)c1ccc(-c2ccc(-c3ccco3)o2)c(F)c1
Marked response: Yes

Exam item: API: above_or_equal(metric=B[a]P mutagenicity (revertant colonies/plate; mean ± SEM), cutoff=200 revertant colonies/plate) for item N#Cc1ccc(-c2ccc(-c3ccco3)o2)c(F)c1
Marked response: Yes

Exam item: API: above_or_equal(metric=B[a]P mutagenicity (revertant colonies/plate; mean ± SEM), cutoff=200 revertant colonies/plate) for item Cl.N=C(N)c1ccc(-c2ccc(-c3cccs3)o2)cc1F
Marked response: Yes
